Target: S1P1 (Homo sapiens)
Sequence (P21453 whole entry): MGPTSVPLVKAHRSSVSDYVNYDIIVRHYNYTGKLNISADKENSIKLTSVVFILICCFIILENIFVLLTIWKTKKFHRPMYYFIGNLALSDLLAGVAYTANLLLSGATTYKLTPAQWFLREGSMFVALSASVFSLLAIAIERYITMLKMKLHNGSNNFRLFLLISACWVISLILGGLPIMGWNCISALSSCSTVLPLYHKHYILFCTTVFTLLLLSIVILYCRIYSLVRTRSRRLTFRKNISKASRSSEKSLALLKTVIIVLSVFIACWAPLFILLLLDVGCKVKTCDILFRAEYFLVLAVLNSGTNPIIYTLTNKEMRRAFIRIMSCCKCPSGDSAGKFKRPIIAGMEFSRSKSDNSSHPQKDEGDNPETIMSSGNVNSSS
Assay: Method A: Receptor [35S] GTPγS Binding Assay, membranes from S1P1/CHO cells
Assay type: biochemical
Parameters: expressed in transfected cells; host or cells: S1P1/CHO cells
Settings: Method A; S1P1/CHO cell membranes
Description: Compounds were loaded in a 384 Falcon v-bottom plate (0.5 μl/well in a 3-fold dilution). Membranes prepared from S1P1/CHO cells or EDG3-Ga15-bla HEK293T cells were added to the compound plate (40 μl/well, final protein […]) with MULTIDROP®. [^35S]GTP (1250 Ci/mmol, Perkin Elmer) was diluted in assay buffer: 20 mM HEPES, pH7.5, 10 mM MgCl2, 150 mM NaCl, 1 mM EGTA, 1 mM DTT, 10 μM GDP, 0.1% fatty acid free BSA, and 10 mg/ml Saponin to 0.4 nM. 40 μl of the [^35S] […]
Where a name gives a salt, the structure may show the parent alone.
Reported endpoint: EC50 (nM)
The reply should be a number in nM, with the unit left off.

Reported EC50 for O=C(O)C1CN(Cc2ccc(-c3noc(-c4noc(-c5ccccc5)c4C(F)(F)F)n3)cc2)C1 [Example 2] was 1.7

Reported EC50 for CCCc1onc(-c2nc(-c3ccc(CN4CC(C(=O)O)C4)cc3)no2)c1CC(C)C [Example 19, TFA] was 3

Reported EC50 for O=C(O)C1CN(Cc2ccc(-c3noc(-c4noc(-c5ccccc5)c4C4CC4)n3)cc2)C1 [Example 6] was 5.6
